Taken from ChEMBL document CHEMBL1129437.

# Viability measurements, system: P388; note: test concentration or dose not given here
Just the number plus its unit, please.

C=CCNc1nc(N2CCC(NCc3cccc4ccccc34)CC2)nc2c1ncn2CC=C = 80%
C=CCNc1nc(N2CCN(C(c3ccc(F)cc3)c3ccc(F)cc3)CC2)nc2c1ncn2CC=C = 99%
C=CCNc1nc(N2CCN(C(c3ccc(F)cc3)c3ccc(F)cc3)CC2)c2ncn(CC=C)c2n1 = 98%
C=CCNc1nc(N2CCC(NCC3c4ccccc4N(C)S(=O)(=O)c4cc(Cl)ccc43)CC2)nc2c1ncn2CC=C (stereo unspecified) = 70%
C=CCNc1nc(N2CCC(NC3c4ccccc4N(C)S(=O)(=O)c4cc(Cl)ccc43)CC2)nc2c1ncn2CC=C (stereo in doubt; 12) = 135%
C=CCNc1nc(N2CCC(NCC3c4ccccc4COc4ccccc43)CC2)nc2c1ncn2CC=C (stereo unspecified) = 95%

Give Viability for all molecules that follow.
1. C=CCNc1nc(N2CCC(NC3c4ccccc4CCc4ccccc43)CC2)nc2c1ncn2CC=C
2. CCCNc1nc(N2CCC(NCC3c4ccccc4CCc4ccccc43)CC2)nc2c1ncn2CCC
3. C=CCNc1nc(N2CCC(NCC3c4ccccc4C=Cc4ccccc43)CC2)c2ncn(CC=C)c2n1
4. C=CCNc1nc(N2CCC(NCC(c3ccc(F)cc3)c3ccc(F)cc3)CC2)c2ncn(CC=C)c2n1
5. C=CCNc1nc(N2CCC(NC3c4ccccc4CCc4ccccc43)CC2)c2ncn(CC=C)c2n1

a:
111%
98%
119%
108%
120%

For each of the molecules below, note its Viability.
1. C=CCNc1nc(N2CCC(NCC(c3ccccc3)(c3ccccc3)c3ccccc3)CC2)nc2c1ncn2CC=C
2. C=CCNc1nc(N2CCC(NCC3c4ccccc4CCc4ccccc43)CC2)nc2c1cnn2CC=C
3. C=CCNc1nc(N2CCC(NCC(c3ccc(F)cc3)c3ccc(F)cc3)CC2)nc2c1ncn2CC=C
4. C=CCNc1nc(N2CCC(NCC3c4ccccc4CCc4ccccc43)CC2)c2ncn(CC=C)c2n1
5. C=CCNc1nc(N2CCC(NCC3c4ccccc4CCc4cc(OC)ccc43)CC2)c2ncn(CC=C)c2n1 (stereo unspecified)
6. C=CCNc1nc(N2CCC(NCC3c4ccccc4CCc4cc(OC)ccc43)CC2)nc2c1cnn2CC=C (stereo unspecified)
7. C=CCNc1nc(N2CCN(C(c3ccc(F)cc3)c3ccc(F)cc3)CC2)nc2ncn(CC=C)c12
8. C=CCNc1nc(N2CCC(NCC3c4ccccc4CCc4ccccc43)CC2)nc2c1nnn2CC=C

a:
["119%", "74%", "95%", "112%", "131%", "90%", "97%", "83%"]

// each molecule listed below needs its Viability
1. C=CCNc1nc(N2CCC(NCC3c4ccccc4CCc4cc(OC)c(OC)c(OC)c43)CC2)nc2c1ncn2CC=C (stereo unspecified)
2. C=CCNc1nc(N2CCC(NCC3Cc4ccccc4Cc4ccccc43)CC2)nc2c1ncn2CC=C (stereo unspecified)
3. C=CCNc1nc(N2CCC(NCC3c4ccccc4CCc4ccccc43)CC2)nc2c1ccn2CC=C
4. C=CCNc1nc(N2CCC(NCC3c4ccccc4CCc4cc(OC)ccc43)CC2)nc2c1ncn2CC=C (stereo unspecified)
5. C=CCn1ncc2c(NCCC)nc(N3CCC(NCC4c5ccccc5CCc5cc(OC)ccc54)CC3)nc21 (stereo unspecified)
6. C=CCNc1nc(N2CCC(NCC3c4ccccc4CCc4ccccc43)CC2)nc2c1ncn2CCC

a:
["96%", "98%", "126%", "114%", "98%", "102%"]

// each molecule listed below needs its Viability
1. C=CCn1cnc2c(NCCC)nc(N3CCC(NCC4c5ccccc5CCc5ccccc54)CC3)nc21
2. C=CCNc1nc(N2CCC(NCC3CCCCc4ccccc43)CC2)nc2c1ncn2CC=C (stereo unspecified)
3. C=CCNc1nc(N2CCC(NCc3cccc4ccccc34)CC2)c2ncn(CC=C)c2n1
4. C=CCNc1nc(N2CCC(NCC(c3ccccc3)c3ccccc3)CC2)nc2c1ncn2CC=C

a:
1. 103%
2. 123%
3. 104%
4. 93%
